# Tested on: K4 kissing-loop RNA reporter;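 also: bound reporter read as fluorescence of individual clusters on recovered sequencing chips by microscopy, with normalized cluster intensities fitted with a binding model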
# method: apparent KD of K4 kissing-loop reporter; higher = weaker reporter binding
# experimental-setup: Eterna round: R107; input ligand: FMN 200 uM
Binary classification by apparent KD of K4 kissing-loop reporter, with 200 nM as an inclusive lower bound for satisfied; all other cases are not satisfied.

Inquiry: Decide: apparent KD of K4 kissing-loop reporter of AAGUGAUGUUGUAGUGAUGUUGUGAUGUUGCAGGAUAUAUAGUGAUGUAGAAGGGUAUGUACAGAUUUUUUUUUUGAGUGAUGUU [ffdcmullin] >= 200 nM?
Reply text: not satisfied

Inquiry: Decide: apparent KD of K4 kissing-loop reporter of CGCAGUGAUGUUGCUUAUAUUCUUGGUUAACGAGGACCGGUACGGCCGCCACUCGAUUUCUAUCUAUUCCAGUGUUAAUUUGAGU [JR_ExcTryptoA_Sub005] >= 200 nM?
Reply text: satisfied

Inquiry: Decide: apparent KD of K4 kissing-loop reporter of GGAUCCACCAGUGAUGUUGGAGAAAACUCUAAGGAUAUGACGAAAGUCAGAAGGUGGUAGACUGGUCAAAGUCCGGUCGGAUCCA [FmnA10 U30+U66] >= 200 nM?
Reply text: satisfied

---
Inquiry: Decide: apparent KD of K4 kissing-loop reporter of AGCCGAAAGGCGAGUGCUGUCACUCCGGAAGGAGCGCUCGAAAGAGCAGGUAGGUCGCCGGAGUGAUGUUCCGGUGCAGCACUCA [Omei KL Arginine A Exc B v5] >= 200 nM?
Reply text: satisfied

Inquiry: Decide: apparent KD of K4 kissing-loop reporter of UAGUCCGGGUGAUGGUCAUCACGUGGCGGGCGAGGACCGGUACGGCCGCCACUCGACUUUGCAGUGAUGUUGCAAACCGGACAAU [Exclusion - Tryptophan A (Freestyle 22)] >= 200 nM?
Reply text: satisfied

Inquiry: Decide: apparent KD of K4 kissing-loop reporter of GUAUGUGGAAACACGUACUUAUAUCCUAAGCAGGAUAUGCGGAAACGCAGAAGGGCUACCAACGAGUUUACCCAGUGAUGUUGGG [Ex FMN A 14] >= 200 nM?
Reply text: satisfied

Inquiry: Decide: apparent KD of K4 kissing-loop reporter of GCGAACAUUCGCAGUGAUGUUGCGACGGAAGGAGCGCGUGAAAACGCAGGUAGGUCGCCGACAACAUUAAUUUUAAUGUGUUCGC [Arginine A K4 28] >= 200 nM?
Reply text: satisfied

Inquiry: Decide: apparent KD of K4 kissing-loop reporter of AGCAUUUUCAGAAGGAGCGUGAAUUAUUCAUAAUUAUAUUAUACGAGUGAUGUUCGUAUUUCACAGGUAGGUCGCUGAUAUAGCA [JR_SSArginiB_Sub002] >= 200 nM?
Reply text: not satisfied

Inquiry: Decide: apparent KD of K4 kissing-loop reporter of CUGCAAAAGUCGGCCGCCACUCCGGGCCCUAUAAAUGGGCGCAGUGAUGUUGCGGCUAGGCCUCUGAGGACCGGGACUUUGUAAC [Aratan] >= 200 nM?
Reply text: not satisfied

Inquiry: Decide: apparent KD of K4 kissing-loop reporter of GGUUCCUCAGUGAUGUUGAGGUGACCUCGGCAGGAUAUAGGCAUUACUAGAAGGGCCAAAUGAACCCUGUCCAGCGGCACAGGGA [Arleorbile] >= 200 nM?
Reply text: not satisfied

Inquiry: Decide: apparent KD of K4 kissing-loop reporter of GUCCGGAAGGCGGCUUCACGACCGUGGUGGGAGGAUAUGUCUAAGGACAGAAGGCCCAGUGAUGUUGGGCUUUAGGAGAGCCAUA [Ragele] >= 200 nM?
Reply text: satisfied

Inquiry: Decide: apparent KD of K4 kissing-loop reporter of CCUAUCUCAUACGAUACCAGUGAAAUAAUAUUUAUAAGCAGUGAUGUUGCAUUCCAAGAACACCCUUGGCAGCGUAUGGGAUAGG [Ex Theophylline B K4 19] >= 200 nM?
Reply text: not satisfied
